# TARGET_OR_TEST_SYSTEM: 11-beta-hydroxysteroid dehydrogenase 1 (Mus musculus, UniProt P50172)
# Sequence (P50172 whole entry): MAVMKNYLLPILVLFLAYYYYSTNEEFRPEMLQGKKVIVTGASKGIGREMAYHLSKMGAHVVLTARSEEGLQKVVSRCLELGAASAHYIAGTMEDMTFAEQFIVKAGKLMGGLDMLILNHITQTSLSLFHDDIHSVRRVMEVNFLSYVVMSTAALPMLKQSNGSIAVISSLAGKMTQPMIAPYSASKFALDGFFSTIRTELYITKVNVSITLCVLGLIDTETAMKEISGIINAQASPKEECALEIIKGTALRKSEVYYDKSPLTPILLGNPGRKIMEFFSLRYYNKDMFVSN
# EXPERIMENTAL_PROTOCOL: Inhibition of mouse 11beta-HSD1 expressed in CHO cells after 4 hrs by scintillation proximity assay
pIC50: −log10 of the molar value.
MEASUREMENT_TYPE: pIC50

O=C(N1CCC2CCCCC2C1)C12CC3CC(CC(C3)C1)C2 (stereo not drawn)    6.64
CCN1CCN(C(=O)C2CCC(C(C)(C)C)CC2)CC1 (stereo not drawn)    5.92
O=C(N1CCCc2ccccc21)C12CC3CC(CC(C3)C1)C2    6.32
O=C(N1CCCCC1)C12CC3CC(CC(C3)C1)C2    6.87

(1) O=C(N1CCN(CCO)CC1)C12CC3CC(CC(C3)C1)C2
(2) Cc1ccc(C23CC4CC(CC(C(=O)N5CCN(C)CC5)(C4)C2)C3)cc1
(3) Cc1ccc(C23CC4CC(CC(C(=O)N5CCN(CCO)CC5)(C4)C2)C3)cc1
(4) CCN1CCN(C(=O)C23CC4CC(CC(C4)C2)C3)CC1
Ranking field: pIC50; order: falling. Sort the labels as requested; that list is your answer.
3, 2, 4, 1
